Source: patent US9604940B2

measurement target: CSF1R (FMS) (Homo sapiens)
Sequence (P07333 20-972): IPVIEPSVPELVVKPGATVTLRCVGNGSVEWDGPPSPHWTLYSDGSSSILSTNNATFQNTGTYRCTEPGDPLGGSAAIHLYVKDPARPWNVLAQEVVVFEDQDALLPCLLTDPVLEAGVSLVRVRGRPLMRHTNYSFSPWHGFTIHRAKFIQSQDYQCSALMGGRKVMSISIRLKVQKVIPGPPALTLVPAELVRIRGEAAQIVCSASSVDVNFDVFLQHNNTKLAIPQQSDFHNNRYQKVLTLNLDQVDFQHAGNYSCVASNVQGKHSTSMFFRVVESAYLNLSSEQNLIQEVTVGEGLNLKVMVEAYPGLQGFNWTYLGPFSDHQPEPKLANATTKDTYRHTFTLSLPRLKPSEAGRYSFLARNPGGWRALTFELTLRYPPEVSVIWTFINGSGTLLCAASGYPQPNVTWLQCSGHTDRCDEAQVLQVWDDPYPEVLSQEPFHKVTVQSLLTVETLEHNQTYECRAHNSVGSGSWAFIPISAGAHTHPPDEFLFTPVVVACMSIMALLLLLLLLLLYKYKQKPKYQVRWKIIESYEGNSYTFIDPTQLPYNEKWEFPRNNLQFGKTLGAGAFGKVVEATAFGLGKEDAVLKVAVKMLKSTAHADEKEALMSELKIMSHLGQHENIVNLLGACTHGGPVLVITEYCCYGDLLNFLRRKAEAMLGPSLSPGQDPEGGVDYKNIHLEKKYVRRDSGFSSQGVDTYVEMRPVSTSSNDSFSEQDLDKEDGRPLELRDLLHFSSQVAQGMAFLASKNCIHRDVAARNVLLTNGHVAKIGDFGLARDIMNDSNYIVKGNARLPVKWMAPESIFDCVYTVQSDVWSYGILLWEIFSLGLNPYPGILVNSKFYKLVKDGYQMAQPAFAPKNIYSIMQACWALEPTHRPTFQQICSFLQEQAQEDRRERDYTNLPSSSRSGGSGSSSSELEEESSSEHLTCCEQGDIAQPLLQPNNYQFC
pIC50: −log10 of the molar value.
quantity: pIC50

molecule="Nc1ncc(-c2cnn(CCNC3CCN[C@@H](C(=O)OC4CCCC4)C3)c2)nc1NCc1c(Cl)cccc1Cl (stereo partly drawn) [Example 55, di-formate]" quantity=pIC50 observed_result="6.52 to 7.00"
molecule="Nc1ncc(-c2cccc(CN3CCN[C@@H](C(=O)OC4CCCC4)C3)c2)nc1NCc1c(Cl)cccc1Cl [Example 37]" quantity=pIC50 observed_result="6.00 to 6.52"
molecule="CC(C)C[C@H](NCCn1cc(-c2cnc(N)c(NCc3c(Cl)cccc3Cl)n2)cn1)C(=O)OC(C)(C)C [Example 58]" quantity=pIC50 observed_result="< 5.30"
molecule="CC(C)(C)OC(=O)[C@H]1CC(NCc2ccc(-c3cnc(N)c(NCc4c(Cl)cccc4Cl)n3)cc2Cl)CCN1 (stereo partly drawn) [Example 25]" quantity=pIC50 observed_result="6.52 to 7.00"
molecule="CC(C)(C)OC(=O)[C@H]1CC(NC(=O)c2ccc(-c3cnc(N)c(NCc4c(Cl)cccc4Cl)n3)cc2)CCN1 (stereo partly drawn) [Example 4]" quantity=pIC50 observed_result="6.52 to 7.00"
molecule="CN(Cc1ccc(-c2cnc(N)c(NCc3c(Cl)cccc3Cl)n2)cc1)C1CCN[C@@H](C(=O)OC2CCCC2)C1 (stereo partly drawn) [Example 28]" quantity=pIC50 observed_result="6.52 to 7.00"
molecule="CC(C)(NCCc1cccc(-c2cnc(N)c(NCc3c(Cl)cccc3Cl)n2)c1)C(=O)OC1CCCC1 [Example 48]" quantity=pIC50 observed_result="5.30 to 6.00"
molecule="CC(C)(C)OC(=O)C1CN(C(=O)c2ccc(-c3cnc(N)c(NCc4c(Cl)cccc4Cl)n3)cc2)CCN1 (stereo not drawn) [Example 6]" quantity=pIC50 observed_result="6.52 to 7.00"

Missing value: pIC50, CSF1R (FMS) (Homo sapiens), entry Nc1ncc(-c2cnn(CC(=O)NC3CCN[C@@H](C(=O)OC4CCCC4)C3)c2)nc1NCc1c(Cl)cccc1Cl (stereo partly drawn) [Example 53] . Fill in?
6.52 to 7.00
